- measurement_target: cynomolgus beta klotho / human FGFR1c receptor complex on cells (cynomolgus monkey (Macaca …))
- Sequence (chain, as listed by the source limits assumed, chain 1 of 2): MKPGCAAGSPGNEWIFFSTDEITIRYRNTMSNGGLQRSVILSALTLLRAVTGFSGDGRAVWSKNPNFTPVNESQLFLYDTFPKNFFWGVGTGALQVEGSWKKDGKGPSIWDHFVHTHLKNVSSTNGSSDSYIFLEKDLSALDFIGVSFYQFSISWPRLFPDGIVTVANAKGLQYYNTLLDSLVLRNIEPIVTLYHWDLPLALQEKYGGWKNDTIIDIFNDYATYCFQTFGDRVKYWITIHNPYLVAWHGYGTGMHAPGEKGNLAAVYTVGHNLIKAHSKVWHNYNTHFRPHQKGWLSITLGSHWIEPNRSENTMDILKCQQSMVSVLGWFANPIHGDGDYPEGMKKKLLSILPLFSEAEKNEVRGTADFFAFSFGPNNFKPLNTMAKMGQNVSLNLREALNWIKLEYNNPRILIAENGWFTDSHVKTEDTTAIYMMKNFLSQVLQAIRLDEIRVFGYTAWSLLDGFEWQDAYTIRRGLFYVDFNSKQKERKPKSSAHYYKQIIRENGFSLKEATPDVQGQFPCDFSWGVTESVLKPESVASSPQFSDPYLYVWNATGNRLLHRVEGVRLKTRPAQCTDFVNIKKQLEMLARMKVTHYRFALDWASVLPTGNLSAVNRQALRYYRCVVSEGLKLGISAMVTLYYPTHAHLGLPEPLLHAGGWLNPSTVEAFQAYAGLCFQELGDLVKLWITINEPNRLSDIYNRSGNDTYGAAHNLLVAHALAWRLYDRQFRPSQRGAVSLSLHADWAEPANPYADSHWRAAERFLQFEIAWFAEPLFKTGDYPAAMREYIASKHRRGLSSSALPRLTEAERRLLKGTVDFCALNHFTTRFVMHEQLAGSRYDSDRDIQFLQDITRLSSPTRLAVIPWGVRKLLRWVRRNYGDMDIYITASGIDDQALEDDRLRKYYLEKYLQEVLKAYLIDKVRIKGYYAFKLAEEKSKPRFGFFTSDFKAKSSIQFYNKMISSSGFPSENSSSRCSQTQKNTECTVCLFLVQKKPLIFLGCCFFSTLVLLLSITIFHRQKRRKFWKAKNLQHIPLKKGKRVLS
- Sequence (chain, as listed by the source limits assumed, chain 2 of 2): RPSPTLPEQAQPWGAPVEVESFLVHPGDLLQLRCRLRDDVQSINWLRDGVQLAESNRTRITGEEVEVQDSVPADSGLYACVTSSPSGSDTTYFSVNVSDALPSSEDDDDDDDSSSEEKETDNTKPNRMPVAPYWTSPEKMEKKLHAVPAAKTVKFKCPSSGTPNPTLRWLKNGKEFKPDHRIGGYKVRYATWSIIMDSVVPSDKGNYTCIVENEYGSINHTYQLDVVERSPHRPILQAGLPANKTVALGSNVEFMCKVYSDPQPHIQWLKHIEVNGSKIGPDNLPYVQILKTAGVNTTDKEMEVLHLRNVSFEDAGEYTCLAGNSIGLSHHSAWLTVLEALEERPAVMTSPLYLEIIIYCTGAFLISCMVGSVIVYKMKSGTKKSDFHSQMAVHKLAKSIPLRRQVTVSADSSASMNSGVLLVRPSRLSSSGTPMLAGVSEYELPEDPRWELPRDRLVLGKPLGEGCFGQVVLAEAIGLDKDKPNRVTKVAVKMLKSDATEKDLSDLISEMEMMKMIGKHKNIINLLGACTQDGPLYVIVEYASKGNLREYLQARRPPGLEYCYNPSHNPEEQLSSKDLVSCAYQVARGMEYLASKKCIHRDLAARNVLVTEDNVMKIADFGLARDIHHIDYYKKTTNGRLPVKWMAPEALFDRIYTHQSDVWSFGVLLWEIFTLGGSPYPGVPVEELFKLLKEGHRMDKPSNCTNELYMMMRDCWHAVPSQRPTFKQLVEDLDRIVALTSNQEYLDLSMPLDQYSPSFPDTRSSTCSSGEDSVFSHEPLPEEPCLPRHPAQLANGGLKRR
- protocol_summary: cell-based or functional assay
experimental_readout: HEK293 cynoKLB/R1c reporter assay EC50, Experiment - B (pM)
Give bare numbers, in pM.

Value sought for every listed binder: HEK293 cynoKLB/R1c reporter assay EC50, Experiment - B.
1. antibody 1G19 (antibody, V domains shown, Murine monoclonal antibody) VH: QVQLQESGPGLVKPSQSLSLTCSVTGYSITSGYYWNWIRQFPGNKLEWMGYINYGGSNNYNPSLKNRISITRDTSKNQFFLKLTSVTTEDTATYYCARRGAYYSNYDSFDVWGTGTTVTVSS VL: DIKMTQSPSSMYASLGERVTITCKASQDINSYLSWFQQKPGKSPKTLIYRANRLVDGVPSRFSGSGSGQDYSLTISSLEYEEMGIYYCLQYDEFPYTFGGGTKLEIK
2. antibody 5H23 (antibody, V domains shown, Murine monoclonal antibody from hybridoma; also called 5H23-Alexa647 (labelled form)) VH: QVQLQQSGPELVKPGALVKISCKASGYTFTSYDINWVKQRPGQGLEWIGWIYPGDGSTKYNEKFKGKATLTADKSSRTAYMQLSSLTSENSAVYFCARSDYYGSRSFAYWGQGTLVTVSA VL: DIVLTQSPASLAVSLGQRATISCRASKSVSTSGYVYMHWNQQKPGQPPKLLIYLASYLESGVPARFSGSGSGTDFTLNIHPVEEEDAAIYYCQHSRDLTFPFGGGTKLEIK
3. antibody 1D19 (antibody, V domains shown, Murine monoclonal antibody) VH: QVQPQESGPELVKPGALVKISCKASGYTFTRYDINWMKQRPGQGLEWIGWIYPGDSSTKFNENFKDKATLTADKSSSTAYMQLSSLTSENSTVYFCARSDYYGSRSFTYWGQGTLVTVSA VL: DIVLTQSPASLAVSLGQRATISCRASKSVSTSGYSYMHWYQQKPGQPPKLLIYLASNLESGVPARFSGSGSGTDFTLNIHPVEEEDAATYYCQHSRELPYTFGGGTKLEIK

**A:**
1. 2450
2. 218
3. 954
